- Tested on: Key Grass and Sedge Weeds as well as Grass Crops
- assay method text: Post-Emergent Test II (Table 6)
- Format: in vivo
- run conditions: post-emergence, 336 h, SORVU: grain sorghum (Sorghum vulgare), 70 g ai/ha, 14 days after application, read-out: Visual Growth Reduction (%) 14 Days After Application SORVU
So I've got a bunch of compounds here, and I need their pest or weed control at 70 g/ha values.

Q. Value lookup for pest or weed control at 70 g/ha; key = Nc1c(Cl)c(C(=O)O)nc(-c2ccc(C(F)(F)F)nc2)c1Cl [Compound 33]
A. 75 to 84%

Q. Value lookup for pest or weed control at 70 g/ha; key = COC(=O)c1nc(-c2ccc(C(F)(F)F)nc2C)c(F)c(N)c1Cl [Compound 35]
A. 0 to 29%

Q. Value lookup for pest or weed control at 70 g/ha; key = COC(=O)c1nc(-c2c(F)cc(Cl)c(F)c2C)cc(N)c1Cl [Compound 38]
A. 0 to 29%

Q. Value lookup for pest or weed control at 70 g/ha; key = COC(=O)c1nc(-c2ccc(C)nc2F)c(F)c(N)c1Cl [Compound 76]
A. 45 to 59%

Q. Value lookup for pest or weed control at 70 g/ha; key = COC(=O)c1nc(-c2ccc(Cl)c(F)c2Cl)cc(N)c1Cl [Compound 72]
A. 60 to 74%

====

- Test system: Key Grass and Sedge Weeds as well as Grass Crops
- assay method text: Post-Emergent Test II (Table 6)
- Type: in vivo
- run conditions: post-emergence, 336 h, SORVU: grain sorghum (Sorghum vulgare), 70 g ai/ha, 14 days after application, read-out: Visual Growth Reduction (%) 14 Days After Application SORVU
measured metric: pest or weed control at 70 g/ha

Q. Value lookup for pest or weed control at 70 g/ha; key = Cc1c(-c2cc(N)c(Cl)c(C(=O)O)n2)ccc(F)c1F
A. 0 to 29%

Q. Value lookup for pest or weed control at 70 g/ha; key = COC(=O)c1nc(-c2ccc(OC)nc2Cl)c(F)c(N)c1Cl
A. 0 to 29%

Q. Value lookup for pest or weed control at 70 g/ha; key = COc1nc(Cl)ccc1-c1cc(N)c(Cl)c(C(=O)O)n1
A. 0 to 29%

Q. Value lookup for pest or weed control at 70 g/ha; key = COC(=O)c1nc(-c2ccc(C(F)(F)F)nc2OC)cc(N)c1Cl
A. 0 to 29%

Q. Value lookup for pest or weed control at 70 g/ha; key = COC(=O)c1nc(-c2ccc(C(F)(F)F)nc2)nc(N)c1OC
A. 0 to 29%

Q. Value lookup for pest or weed control at 70 g/ha; key = COC(=O)c1nc(-c2ccc(Cl)c(F)c2C)cc(N)c1Cl
A. 45 to 59%

Q. Value lookup for pest or weed control at 70 g/ha; key = COC(=O)c1nc(-c2ccc(C(F)(F)F)nc2)c(C)c(N)c1Cl
A. 60 to 74%

Q. Value lookup for pest or weed control at 70 g/ha; key = COC(=O)c1nc(-c2ccc(OC)nc2)c(F)c(N)c1Cl
A. 60 to 74%

Q. Value lookup for pest or weed control at 70 g/ha; key = C=Cc1c(-c2cc(N)c(Cl)c(C(=O)OC)n2)ccc(Cl)c1F
A. 0 to 29%

Q. Value lookup for pest or weed control at 70 g/ha; key = COC(=O)c1nc(-c2ccc(C(F)(F)F)c(F)c2C)c(F)c(N)c1Cl
A. 0 to 29%

Q. Value lookup for pest or weed control at 70 g/ha; key = COC(=O)c1nc(-c2ccc(Cl)c(F)c2OC)cc(N)c1Cl
A. 0 to 29%

Q. Value lookup for pest or weed control at 70 g/ha; key = COC(=O)c1nc(-c2ccc(C(F)(F)F)nc2)c(Cl)c(N)c1Cl
A. 75 to 84%

Q. Value lookup for pest or weed control at 70 g/ha; key = COc1nc(C(F)(F)F)ccc1-c1cc(N)c(Cl)c(C(=O)O)n1
A. 0 to 29%

Q. Value lookup for pest or weed control at 70 g/ha; key = Cc1ccc(-c2nc(C(=O)O)c(Cl)c(N)c2F)cn1
A. 0 to 29%

Q. Value lookup for pest or weed control at 70 g/ha; key = Cc1c(-c2cc(N)c(Cl)c(C(=O)O)n2)ccc(Cl)c1Cl
A. 0 to 29%

Q. Value lookup for pest or weed control at 70 g/ha; key = COC(=O)c1nc(-c2ccc(Cl)c(F)c2CO)cc(N)c1Cl
A. 0 to 29%

Q. Value lookup for pest or weed control at 70 g/ha; key = C#Cc1c(-c2cc(N)c(Cl)c(C(=O)OC)n2)ccc(Cl)c1F
A. 0 to 29%

Q. Value lookup for pest or weed control at 70 g/ha; key = COC(=O)c1nc(-c2ccc(F)nc2)c(F)c(N)c1Cl
A. 0 to 29%

Q. Value lookup for pest or weed control at 70 g/ha; key = COc1c(-c2cc(N)c(Cl)c(C(=O)O)n2)ccc(Cl)c1F
A. 0 to 29%

====

- Test system: Key Grass and Sedge Weeds as well as Grass Crops
- assay method text: Post-Emergent Test II (Table 6)
- Assay type: in vivo
- run conditions: post-emergence, 336 h, CYPSS, 70 g ai/ha, 14 days after application, read-out: Visual Growth Reduction (%) 14 Days After Application CYPSS
So I've got a bunch of compounds here, and I need their pest or weed control at 70 g/ha values.

Q. Value lookup for pest or weed control at 70 g/ha; key = COC(=O)c1nc(-c2ccc(Cl)c(F)c2Cl)cc(N)c1Cl [Compound 72]
A. 95 to 100%

Q. Value lookup for pest or weed control at 70 g/ha; key = Cc1c(F)c(Cl)cc(F)c1-c1cc(N)c(Cl)c(C(=O)O)n1 [Compound 92]
A. 0 to 29%

Q. Value lookup for pest or weed control at 70 g/ha; key = Nc1c(F)c(-c2ccc(C3CC3)nc2)nc(C(=O)O)c1Cl [Compound 36]
A. 95 to 100%

Q. Value lookup for pest or weed control at 70 g/ha; key = COC(=O)c1nc(-c2ccc(Cl)c(OC)c2C(F)F)cc(N)c1Cl [Compound 60]
A. 30 to 44%

Q. Value lookup for pest or weed control at 70 g/ha; key = COC(=O)c1nc(-c2ccc(C(F)(F)F)nc2OC)cc(N)c1Cl [Compound 37]
A. 0 to 29%

====

- Test system: Key Grass and Sedge Weeds as well as Grass Crops
- assay method text: Post-Emergent Test II (Table 6)
- Assay type: in vivo
- run conditions: post-emergence, 336 h, SORVU: grain sorghum (Sorghum vulgare), 70 g ai/ha, 14 days after application, read-out: Visual Growth Reduction (%) 14 Days After Application SORVU
measured metric: pest or weed control at 70 g/ha

Q. Please provide the recorded pest or weed control at 70 g/ha for Nc1cc(-c2ccc(Cl)nc2Cl)nc(C(=O)O)c1Cl , tested on Key Grass and Sedge Weeds as well as Grass Crops.
A. 0 to 29%

Q. Please provide the recorded pest or weed control at 70 g/ha for COc1ccc(-c2nc(C(=O)O)c(Cl)c(N)c2F)cn1 , tested on Key Grass and Sedge Weeds as well as Grass Crops.
A. 45 to 59%

Q. Please provide the recorded pest or weed control at 70 g/ha for COC(=O)c1nc(-c2ccc(C)nc2)c(F)c(N)c1Cl , tested on Key Grass and Sedge Weeds as well as Grass Crops.
A. 45 to 59%

Q. Please provide the recorded pest or weed control at 70 g/ha for COC(=O)c1nc(-c2ccc(C(F)(F)F)nc2OC)c(F)c(N)c1Cl , tested on Key Grass and Sedge Weeds as well as Grass Crops.
A. 0 to 29%

Q. Please provide the recorded pest or weed control at 70 g/ha for COC(=O)c1nc(-c2ccc(Cl)c(F)c2CF)cc(N)c1Cl , tested on Key Grass and Sedge Weeds as well as Grass Crops.
A. 0 to 29%

Q. Please provide the recorded pest or weed control at 70 g/ha for Cc1c(-c2ccc(C(F)(F)F)nc2)nc(C(=O)O)c(Cl)c1N , tested on Key Grass and Sedge Weeds as well as Grass Crops.
A. 75 to 84%

Q. Please provide the recorded pest or weed control at 70 g/ha for COC(=O)c1nc(-c2ccc(Cl)c(F)c2C)nc(N)c1OC , tested on Key Grass and Sedge Weeds as well as Grass Crops.
A. 0 to 29%

====

- System: Key Grass and Sedge Weeds as well as Grass Crops
- assay method text: Post-Emergent Test II (Table 6)
- Format: in vivo
- run conditions: post-emergence, 336 h, ZEAMX: maize, corn (Zea mays), 70 g ai/ha, 14 days after application, read-out: Visual Growth Reduction (%) 14 Days After Application ZEAMX
So I've got a bunch of compounds here, and I need their pest or weed control at 70 g/ha values.

Q. Please provide the recorded pest or weed control at 70 g/ha for COC(=O)c1nc(-c2ccc(C)nc2)c(F)c(N)c1Cl , tested on Key Grass and Sedge Weeds as well as Grass Crops.
A. 95 to 100%

Q. Please provide the recorded pest or weed control at 70 g/ha for COc1c(N)nc(-c2ccc(C(F)(F)F)nc2)nc1C(=O)O , tested on Key Grass and Sedge Weeds as well as Grass Crops.
A. 0 to 29%

Q. Please provide the recorded pest or weed control at 70 g/ha for COC(=O)c1nc(-c2ccc(C(F)(F)F)nc2)nc(N)c1OC , tested on Key Grass and Sedge Weeds as well as Grass Crops.
A. 0 to 29%

Q. Please provide the recorded pest or weed control at 70 g/ha for COC(=O)c1nc(-c2ccc(Cl)c(F)c2OC)c(F)c(N)c1Cl , tested on Key Grass and Sedge Weeds as well as Grass Crops.
A. 0 to 29%

Q. Please provide the recorded pest or weed control at 70 g/ha for COC(=O)c1nc(-c2ccc(Cl)nc2F)nc(N)c1Cl , tested on Key Grass and Sedge Weeds as well as Grass Crops.
A. 0 to 29%

Q. Please provide the recorded pest or weed control at 70 g/ha for COC(=O)c1nc(-c2ccc(C(F)(F)F)nc2C)c(F)c(N)c1Cl , tested on Key Grass and Sedge Weeds as well as Grass Crops.
A. 0 to 29%

Q. Please provide the recorded pest or weed control at 70 g/ha for COC(=O)c1nc(-c2ccc(I)c(F)c2C)cc(N)c1Cl , tested on Key Grass and Sedge Weeds as well as Grass Crops.
A. 0 to 29%

Q. Please provide the recorded pest or weed control at 70 g/ha for Nc1c(F)c(-c2ccc(C(F)(F)F)nc2)nc(C(=O)O)c1Cl , tested on Key Grass and Sedge Weeds as well as Grass Crops.
A. 85 to 94%

Q. Please provide the recorded pest or weed control at 70 g/ha for COC(=O)c1nc(-c2ccc(C(F)(F)F)nc2)cc(N)c1Cl , tested on Key Grass and Sedge Weeds as well as Grass Crops.
A. 0 to 29%
